Reported DC50 values are given for each entry in this list.
Target: BRAF G469A (Homo sapiens, UniProt P15056, G469A)
Construct: Horizon Discovery (HCT-116 BRAF−/− cells); host or cells: HCT-116 BRAF−/− cells, clone 34, lentiviral transduction
Sequence (P15056 whole entry G469A): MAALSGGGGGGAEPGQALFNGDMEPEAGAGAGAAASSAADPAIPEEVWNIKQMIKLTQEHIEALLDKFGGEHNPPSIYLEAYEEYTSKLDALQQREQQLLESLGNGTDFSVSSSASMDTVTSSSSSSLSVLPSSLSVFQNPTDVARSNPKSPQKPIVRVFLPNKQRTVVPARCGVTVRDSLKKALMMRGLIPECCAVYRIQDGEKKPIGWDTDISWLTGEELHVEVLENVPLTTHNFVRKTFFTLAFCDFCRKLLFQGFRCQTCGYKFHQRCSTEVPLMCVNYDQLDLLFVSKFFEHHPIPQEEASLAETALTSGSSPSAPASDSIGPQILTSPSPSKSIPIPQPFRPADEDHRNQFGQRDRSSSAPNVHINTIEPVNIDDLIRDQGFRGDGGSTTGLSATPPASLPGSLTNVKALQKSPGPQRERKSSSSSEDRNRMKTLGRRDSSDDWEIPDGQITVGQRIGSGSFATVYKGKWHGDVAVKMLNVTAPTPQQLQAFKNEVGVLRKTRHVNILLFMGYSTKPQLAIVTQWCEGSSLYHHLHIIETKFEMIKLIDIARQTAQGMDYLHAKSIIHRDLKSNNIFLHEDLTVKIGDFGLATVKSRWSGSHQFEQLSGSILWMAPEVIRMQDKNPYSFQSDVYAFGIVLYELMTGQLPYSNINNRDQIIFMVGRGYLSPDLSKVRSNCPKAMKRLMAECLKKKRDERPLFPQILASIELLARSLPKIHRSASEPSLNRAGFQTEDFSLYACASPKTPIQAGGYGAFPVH
Assay: BRAF HiBiT degradation assay, C-terminal HiBiT-tagged BRAF G469A overexpressed in HCT-116 BRAF−/− cells (clone 34), Nano-Glo HiBiT Lytic assay
Format: cell-based
Conditions: BRAF G469A (Class 2), HCT-116 BRAF−/− cells; DC50 at 50% degradation

[[record]]
compound = "O=C1CC[C@H](c2ccc(N3CCC(CN4CCN(c5ccc(-n6cc(-c7cc(Cl)cc(NS(=O)(=O)N8CC[C@@H](F)C8)c7F)c(-c7ccncc7)n6)cc5F)CC4)CC3)cc2)C(=O)N1 [Compound 367]"
target_entity = "BRAF G469A (Homo sapiens, UniProt P15056, G469A)"
property_label = "DC50"
result = "< 10 nM"

[[record]]
compound = "O=C1CC[C@H](c2ccc(N3CCC(CN4CCN(c5ccc(-n6cc(-c7cc(Cl)cc(NS(=O)(=O)N8CC[C@@H](F)C8)c7F)c(-c7ccncc7)n6)cc5)CC4)CC3)nc2)C(=O)N1 [Compound 264]"
target_entity = "BRAF G469A (Homo sapiens, UniProt P15056, G469A)"
property_label = "DC50"
result = "< 10 nM"


Problem: Respond only with DC50 recorded for O=C1CCC(c2ccc(N3CCC(CN4CCN(c5ccc(-n6cc(-c7cc(Cl)cc(NS(=O)(=O)N8CCCC8)c7F)c(-c7ccncc7)n6)cc5)CC4)CC3)c(F)c2F)C(=O)N1 (racemic) [Compound 385]
Solution: 50 to 500 nM

Problem: Respond only with DC50 recorded for O=C1CCC(c2ccc(N3CCC(CN4CCCN(c5ccc(-n6cc(-c7cc(Cl)cc(NS(=O)(=O)N8CCCC8)c7F)c(-c7ccncc7)n6)c(F)c5)CC4)CC3)nc2)C(=O)N1 (racemic) [Compound 345]
Solution: > 500 nM

Problem: Respond only with DC50 recorded for CCCS(=O)(=O)Nc1cccc(-c2cn(-c3ccc(N4CCC(CN5CCN(c6ccc(C7CCC(=O)NC7=O)cc6)CC5)CC4)cc3)nc2-c2ccncc2)c1F (racemic) [Compound 381]
Solution: 10 to 50 nM

Problem: Respond only with DC50 recorded for O=C1CCN(c2ccc(N3CCC(CN4CCN(c5ccc(-n6cc(-c7cc(Cl)cc(NS(=O)(=O)N8CC[C@@H](F)C8)c7F)c(-c7ccncc7)n6)nc5)CC4)CC3)cc2)C(=O)N1 [Compound 295]
Solution: 50 to 500 nM

Problem: Respond only with DC50 recorded for O=C1CCN(c2ccc(N3CCC(CN4CCN(c5ccc(-n6cc(-c7cc(Cl)cc(NS(=O)(=O)N8CC[C@@H](F)C8)c7F)c(-c7ccncc7)n6)cc5F)CC4)CC3)cc2)C(=O)N1 [Compound 365]
Solution: > 500 nM

Problem: Respond only with DC50 recorded for CCN(C)S(=O)(=O)Nc1cc(Cl)cc(-c2cn(-c3ccc(N4CCN(CC5CCN(c6ccc(N7CCC(=O)NC7=O)cc6)CC5)CC4)cn3)nc2-c2ccncc2)c1F [Compound 311]
Solution: > 500 nM

Problem: Respond only with DC50 recorded for O=C1CC[C@H](c2ccc(N3CCC(CN4CCN(c5ccc(-n6cc(-c7cc(Cl)cc(NS(=O)(=O)N8CC(F)C8)c7F)c(-c7ccncc7)n6)c(F)c5)CC4)CC3)cc2)C(=O)N1 [Compound 338]
Solution: < 10 nM

Problem: Respond only with DC50 recorded for CCCS(=O)(=O)Nc1cccc(-c2nc(C3CCC4(CC3)CCN(CC3CCN(c5ccc(C6CCC(=O)NC6=O)cn5)CC3)CC4)sc2-c2ccnc(N)n2)c1F (racemic) [Compound 260]
Solution: > 500 nM
